experiment: small-molecule binders of probe aNOTCH2, primary screen, biochemical, small-molecule microarray, 635/667 nm fluorescence (AID 1121); details: higher = more signal;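 note: score merges feature fluorescence read at 667 nm with its signal to noise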
result type: composite z-score

O=C1C=C(c2ccccc2)C(=O)c2ccc([C@H]3Oc4ccccc4S(=O)(=O)N4CCC[C@@H]34)cc21 : -0.161
COC(=O)[C@@]1(Cc2ccc(OC)cc2)[C@H]2c3cc(C(=O)N4CCCC4)n(Cc4c(-c5ccccc5)noc4C)c3C[C@H]2CN1C(=O)c1ccccc1 : 0.251
C=CC[C@@]1(C(=O)N2CCOCC2)N=C(c2ccc(OCCCO)cc2)O[C@@H]1c1ccccc1CN=[N+]=[N-] : 0.083
CC(c1ccccc1)C(O)C1C=CC2C(=O)N(c3ccccc3)C(=O)C2N1Nc1ccc([N+](=O)[O-])cc1 (configuration not stated) : -0.0211
C=CCC(OC(C)=O)[C@@H]1[C@@H](N(Cc2ccc(-c3cccc(C(F)(F)F)c3)o2)C(=O)c2ccc(C)cc2)c2cc(OCCCO)ccc2N1C(=O)c1ccc2ccccc2c1 (some centres not stated) : -0.14
CCCCC(O)C1C=CC2C(=O)N(c3ccccc3)C(=O)C2N1Nc1ccc(C(C)C)cc1 (configuration not stated) : -0.0073
CN(C)CCCCNC(=O)[C@@H]1C[C@@H]2C(=O)N[C@@H](Cc3ccccc3)C(=O)N2[C@@H]1c1cccc(OCCO)c1 : -0.153
C=CCNC(=O)[C@@H]1[C@H]2C(=O)O[C@H](c3ccccc3)[C@H](c3ccccc3)N2[C@H](c2ccc(O)cc2)[C@@]12C(=O)N(C(=O)OCCOC)c1ccc(C#CC3(O)CCCCCC3)cc12 : -0.153
C[C@@H]1ON(c2ccc(C(=O)OC(C)(C)C)cc2)[C@H](c2ccc(O)cc2)[C@H]1C(=O)N1C(=O)OC[C@H]1Cc1ccccc1 : -0.0449
C=CCOC(=O)[C@H]1[C@@H]2C(=O)O[C@@H](c3ccccc3)[C@@H](c3ccccc3)N2[C@@H](c2ccc(OCCOC(=O)[C@@H]3C[C@@H]4C(=O)N[C@@H](CCCCNC(C)=O)C(=O)N4[C@@H]3c3ccc(O)cc3)cc2)[C@]12C(=O)Nc1ccc(I)cc12 : 0.0083
COc1cc2c(cc1OC)CN(C(=O)[C@@H]1[C@H]3C(=O)O[C@H](c4ccccc4)[C@H](c4ccccc4)N3[C@H](c3ccc(OCCO)cc3)[C@@]13C(=O)Nc1ccc(C#CC4(O)CCCCCC4)cc13)CC2 : -0.166
COCCOC(=O)N1C(=O)[C@@]2(c3cc(C#CC4(O)CCCCCC4)ccc31)[C@H](c1ccc(O)cc1)N1[C@H](c3ccccc3)[C@H](c3ccccc3)OC(=O)[C@H]1[C@@H]2C(=O)NC[C@H](O)c1ccccc1 : 0.0296

====

Recorded measurements of z-score, one per entry
experiment: osmotic lysis modulators in infected erythrocytes, primary screen, PSAC antagonist project, cell-based, P. falciparum Indochina, OD700, 3 h (AID 1156); conditions: higher = more signal, called active from +8 up or from −8 down
result type: z-score

COCCOC(=O)N1C(=O)[C@@]2(c3cc(C#CCCO)ccc31)[C@H](C(=O)Nc1nc3ccccc3s1)[C@H]1C(=O)O[C@H](c3ccccc3)[C@H](c3ccccc3)N1[C@@H]2c1ccccc1OCCO : 0.286
C=C(COC)C(=O)CC[C@@H](OC(=O)c1cccnc1)c1ccc(OCCO)cc1 : -1.61
O=C1O[C@H](c2ccccc2)[C@H](c2ccccc2)N2[C@H]1[C@@H](C(=O)Nc1nc3ccccc3s1)[C@]1(C(=O)Nc3ccccc31)[C@H]2c1ccc(OCCO)cc1 : 0.458
Cc1ccc(S[C@]2(C(=O)NCC(F)(F)F)CC(=O)N(C3CCCCC3)[C@@H]2c2ccc(CO)cc2I)cc1 : -0.178
O=C1OCCC=C[C@H]2OC34C=CCN(Cn5nnc6ccccc65)C(=O)[C@H]3N(CCCCCCO)C(=O)[C@@H]4C12 (stereo not given in full) : 0.946
COc1ccc(-c2nc(-c3ccccc3)c3c(c2C)CO[Si]3(C(C)C)C(C)C)cn1 : -0.566
O=C(CS)NCCCCCNC(=O)[C@@H]1C[C@@H]2C(=O)N3CCC[C@H]3C(=O)N2[C@@H]1c1cccc(OCCO)c1 : -0.87
NC(=O)NCC#Cc1ccc2c(c1)[C@]1(C(=O)N2)[C@H](C(=O)NC[C@H](O)c2ccccc2)[C@H]2C(=O)O[C@H](c3ccccc3)[C@H](c3ccccc3)N2[C@@H]1c1ccc(OCCO)cc1 : 1.55
CC(C)C(=C=CC[C@H](O)c1ccc(OCCO)cc1)C[C@H](O)c1ccccn1 : 1.11
O=C1O[C@H](c2ccccc2)[C@H](c2ccccc2)N2[C@H]1[C@@H](C(=O)O)[C@]1(C(=O)Nc3ccc(C#CC4=CCCCC4)cc31)[C@H]2c1ccc(O)cc1 : -10.4
CCCCC=C[C@@H](NC(=O)c1ccc(-c2ccccc2)cc1)c1ccccc1 : -0.309
CCCCCCCCCCC(O)C1C=CC2C(=O)N(C)C(=O)C2N1NC(=O)OC(C)(C)C (stereo not given) : -1.28
C[C@]1(C(=O)NC2CC2)c2ccccc2C(=O)N(Cc2ccccc2)[C@H]1c1ccc(CO)cc1 : 0.475
CN1C(=O)C2C=CC(C(O)c3cccc4ccccc34)N(N3CCCCC3)C2C1=O (stereo not given) : -0.284
C=CC[C@@]1(C(=O)N2CCOCC2)N=C(c2ccc(OCCCO)cc2)O[C@@H]1c1ccccc1CN=[N+]=[N-] : 1.61

====

Recorded measurements of z-score, one per entry
assay: A549 cell viability effects, profiling panel, calcein-AM fluorescence, 48 h, basal (AID 1162); conditions: higher = more signal; note: test concentration not given here
result type: z-score

C=CCC(OC(C)=O)[C@@H]1[C@@H](N(Cc2cc3ccccc3o2)C(=O)c2ccc(-c3ccccc3)cc2)c2cc(OCCCO)ccc2N1C(=O)c1ccc2ccccc2c1 (stereo partly drawn) : 0.48
CC(CO)N1C(=O)[C@@H]2[C@H]3C(=O)OCC=C[C@H]3OC23C=CCN(C(C)(C)C)C(=O)[C@@H]13 (stereo partly drawn) : -0.0702
COCCOC(=O)N1C(=O)[C@@]2(c3cc(C#CC4=CCCCC4)ccc31)[C@H](c1ccc(OCCO)cc1)N1[C@H](c3ccccc3)[C@H](c3ccccc3)OC(=O)[C@H]1[C@@H]2C(=O)NC[C@H](O)c1ccccc1 : 0.148
O=C1NC(=O)C2C1C=CC(C(O)c1ccco1)N2Nc1ccccn1 (stereo not drawn) : -0.291
CCCC[C@@H]1C[C@H]1[C@@H](NC(=O)c1cccs1)c1ccc(C(F)(F)F)cc1 : -1.36
COc1ccc([Si](C)(C)[C@@H]2[C@@H](CCO)O[C@]3(C(=O)N(Cc4ccc(N5CCCCC5=O)cc4)c4ccccc43)[C@H]2C)cc1 : 0.108
C=C(C)c1cc2c(c(CCCCCC)n1)[Si](C(C)C)(C(C)C)OC2 : -0.926
COC(=O)c1c(CC[C@@H](CO)NC(=O)N2CCC[C@H]2Cn2cc(Cc3ccccc3)nn2)oc(C(C)=O)c1C(=O)OC : -0.105
COCCOC(=O)N1C(=O)[C@@]2(c3cc(C#CC4=CCCCC4)ccc31)[C@H](c1ccc(O)cc1)N1[C@H](c3ccccc3)[C@H](c3ccccc3)OC(=O)[C@H]1[C@@H]2C(=O)N1CCN(c2ncccn2)CC1 : -0.462
C=CCNC(=O)[C@H]1[C@@H]2C(=O)O[C@@H](c3ccccc3)[C@@H](c3ccccc3)N2[C@@H](c2ccc(O)cc2)[C@]12C(=O)N(C(=O)OCCOC)c1ccccc12 : -0.335
COCCOC(=O)N1C(=O)[C@@]2(c3cc(C#Cc4ccc(OC)cc4)ccc31)[C@H](c1ccccc1OCCO)N1[C@H](c3ccccc3)[C@H](c3ccccc3)OC(=O)[C@H]1[C@@H]2C(=O)N1CCCCCCC1 : 0.161
COCCOC(=O)N1C(=O)[C@@]2(c3ccccc31)[C@H](C(=O)N1CCN(c3ncccn3)CC1)[C@H]1C(=O)O[C@H](c3ccccc3)[C@H](c3ccccc3)N1[C@@H]2c1ccc(O)cc1 : -0.337
COC(=O)CCCCCCC(=O)Nc1ccc(NC(=O)CCCC[P+](c2ccccc2)(c2ccccc2)c2ccccc2)cc1 : -0.0008
COc1ccc([Si](C)(C)[C@@H]2[C@@H](CC(=O)N3Cc4ccccc4C[C@H]3CO)O[C@]3(C(=O)N(C)c4ccccc43)[C@H]2C)cc1 : -2.16
NCCCCCCNC(=O)[C@@H]1C[C@@H]2C(=O)N[C@@H](CCCCN)C(=O)N2[C@@H]1c1cccc(OCCO)c1 : 0.892
O=C1C2C=CC(C(O)c3ccccc3)N(Nc3ccccc3F)C2C(=O)N1c1ccccc1 (stereo not drawn) : -0.826
C=C[C@@H](OC)[C@H](OC(=O)Nc1ccc(SC)cc1)c1ccc(O)c(F)c1 : -0.247
CC(=O)c1ccc(C(O)C2C=CC3C(=O)N(c4ccccc4)C(=O)C3N2Nc2ccc(C#N)cc2)cc1 (stereo not drawn) : -0.53
COCCOC(=O)N1C(=O)[C@@]2(c3cc(C#Cc4ccc(OC)cc4)ccc31)[C@H](c1ccc(O)cc1)N1[C@H](c3ccccc3)[C@H](c3ccccc3)OC(=O)[C@H]1[C@@H]2C(=O)N1CCCCCCC1 : 0.403
C=C(COC)/C(=C/C[C@H](OC(=O)c1ccncc1)c1ccccc1OCCO)c1cnc2ccccc2c1 : 0.265
CC(C)Cc1ccc(CN2CC[C@@H](NC(=O)Nc3ccccc3)C2)cc1 : -4.11
COC(=O)c1cn(C[C@@H](Cc2ccccc2)NC(=O)N[C@H](CO)CCc2oc(C(C)=O)c(C(=O)OC)c2C(=O)OC)nn1 : -0.282
C=CCN1C(=O)[C@@]2(O[C@@H](CCn3cc([C@H](O)c4ccccc4)nn3)[C@H]([Si](C)(C)c3ccc(OC)cc3)[C@H]2C)c2cc(N3CCC3=O)ccc21 : 0.36
CN1C(=O)C2C=CC(C(O)c3ccc(F)cc3)N(Nc3ccccc3)C2C1=O (stereo not drawn) : -0.434
C=CCN1C(=O)[C@@]2(CCS(=O)(=O)c3ccccc3)N=C(c3ccc(OCCCO)cc3)O[C@H]2c2ccccc21 : 0.0843
CC(C)N1CC=CC23O[C@@H]4C=CCOC(=O)[C@@H]4[C@H]2C(=O)N(CCCO)[C@@H]3C1=O (stereo partly drawn) : 0.555
CCOC(=O)C[C@H]1[C@H](OC(=O)c2ccc(C(=O)c3ccccc3)cc2)[C@@H](NC(=O)Cc2ccc(OC)cc2)c2cc(OCCCO)ccc2N1C(=O)c1ccccc1 : 0.0281
O[C@@H](Cc1ccccc1)[C@@H](/C=C/C1CC1)N(CC#Cc1ccccc1)Cc1cccc(Cl)c1 : 0.136
